test: yeast display, Sf9 membrane polyspecificity reagent, FACS + sequencing; frameworks hold sequencing errors
observable: polyreactivity (PSR sort gate)

sequence_chain | measured_result
QVQLVESGGGLVQAGGSLRLSCAASGSIFWRNAMGWYRQAPGKERELVAAITSGGTTNYADSVKGRFTISRDNAKNTVYLQMNSLKPEDTAVYYCATGASYLRRYDHPHSDVDYWGQGTQVTVSS | low polyreactivity
QVQLVESGGGLVQEGGSLRLSCAASVRIFSDYAMGWYIQAPGKERELVATITSGDSTNYADSVKGRFTISRDNAKNTVYLQMNSLKPEDNAVYYFNADRFADYDYWGQGTQVTVSS | low polyreactivity
